endpointName: melting point

> print(dat)
                                    compound  observedvalue
 1     CN(O)C(=O)NCCCCCCOc1ccc(-c2ccccc2)cc1  148 to 150 °C
 2             Nc1c(CC(=O)O)cccc1Oc1ccccc1Cl    86 to 90 °C
 3  CN(CCF)c1nc2cc(NC(=O)c3c(C(=O)N4CC(F)C4)cnn3C)ccn2n1  233 to 236 °C
 4       CC(=O)c1ccc(OCC=C(C)CSCc2ccccc2)cc1  75 to 76.5 °C
 5  CCCCCS(=O)(=O)NC(=O)c1ccc2sc(C)c(Cc3ccc(Cl)c(Cl)c3)c2c1  159 to 160 °C
 6  COC(=O)[C@H](CC(=O)OC(C)(C)C)NC(=O)c1cccc(NC(=O)OCc2ccccc2)c1  115 to 116 °C
 7  CC(=O)OC1CCC2CCC3C(CCC4(C)C(O)C(N5CCCCC5)CC34)C2(C)C1 (stereo not given)  162 to 166 °C
 8     CC1(C)COC(=O)N1c1nc(-c2cccc(Br)c2)cs1  142 to 144 °C
 9           N=C(Nc1ccccc1CN1CCOCC1)N1CCOCC1  118 to 119 °C
10  CCC1(CO)Cc2cc(OCC(=O)O)c(Cl)c(Cl)c2C1=O (stereo not given)  155 to 157 °C

----------
# key: entry, value: melting point
endpointName: melting point

> print(dat)
                                   molecule  observedvalue
1     COc1ccc2cc(C(=O)CCCCC(=O)N(C)O)ccc2c1  116 to 118 °C
2       O=C(Nc1nonc1-c1ccc(Cl)cc1)NC1CCCCC1         216 °C
3             COCOc1cc(OC)c(OCOC)c(CCO)c1OC  121 to 123 °C
4  COC(=O)C1=C(C#N)NC(C)=C(P2(=O)OCCCO2)C1c1ccccc1[N+](=O)[O-] (stereo not given)  228 to 229 °C
5  C#CC(C)(C)OC(=O)Nc1ccc(-c2ncn(-c3ccc(C(F)(F)F)cc3)n2)cc1  187 to 189 °C

----------
melting point for assorted molecules
endpointName: melting point

> print(dat)
                                   molecule   endpointname  observedvalue
1  CN1C(=O)C(O)N(C2CCCCC2)C1=O (stereo unspecified)  melting point  140 to 141 °C
2  COc1ccnc(C(=O)Nc2ccc(Oc3ccc(C(F)(F)F)cc3)cc2)c1O  melting point    91 to 93 °C
3  CC(C(=O)O)c1ccc2oc(Cc3c(Cl)cccc3Cl)nc2c1 (stereo unspecified)  melting point  122 to 124 °C
4  COC(=O)C1c2ccccc2N(C)c2ccc(Cl)cc21 (stereo unspecified)  melting point         166 °C
5                 O=C(Nc1cccc(O)c1)C(F)(F)F  melting point  133 to 135 °C
6  CCOC(=O)c1cc(-c2ccc(OC)cc2)nn(C(C)C)c1=O  melting point         141 °C

----------
endpointName: melting point

> print(dat)
                                   compound  observedvalue
1  COc1cc2c(Nc3ccc(Cl)cc3F)ncnc2cc1OCc1ccnc(Br)c1  210 to 212 °C
2  N#CC(=Cc1ccc(O)c(O)c1)C(=O)Nc1ccc(Br)cc1  277 to 278 °C
3             Cc1cc(C=O)ccc1NC(=O)OC(C)(C)C  109 to 111 °C
4  COC(=O)c1ccc(C=CC(=O)N2CCc3c([nH]c4ccccc34)C2c2ccc3c(c2)OCO3)cc1 (stereo not given)         211 °C
5  Cc1ccc(S(=O)(=O)N2CCC[C@H]2C(=O)N[C@@H](Cc2ccc(OCC(=O)NC(C)(C)C)cc2)C(=O)O)cc1    88 to 89 °C

----------
endpointName: melting point

> print(dat)
                                   compound  observedvalue
1  O=C(O)[C@H](Cc1ccccc1)NC(=O)[C@@H]1CCCN1C(=O)c1ccccc1  200 to 202 °C
2  CCCN(CCC)C(=O)Cn1c(-c2cccc(Br)c2)nc2cccnc21  125 to 127 °C
3                   CCc1cc(CC)n2ncc(Br)c2n1    64 to 65 °C
4  CCCCCCCCNCC(O)C(O)C(O)C(O)CO (stereo unspecified)  114 to 116 °C
5  CN1CCN(C(=NS(=O)(=O)c2ccc(F)cc2)N2CC(c3ccccc3)C(c3cccnc3)=N2)CC1 (stereo unspecified)  169 to 170 °C
6                        CCCc1nc(N)cc(OC)n1    97 to 99 °C

----------
Here the recorded melting point is given for each entry.
endpointName: melting point

> print(dat)
                                   compound  observedvalue
1  O=c1ccc2ccc(OCCCN3CCN(c4ccccc4)CC3)cc2o1  117 to 118 °C
2  CCOC(=O)c1cn(-c2ccc(F)cn2)c2c(F)c(F)c(F)cc2c1=O  203 to 205 °C
3  NC1=NS(=O)N=C1NCCCN(Cc1ccncc1)c1ccccn1 (stereo not given)  103 to 110 °C
4  O=C(O)C[C@H](NC(=O)Nc1ccc([N+](=O)[O-])cc1)C(=O)O  118 to 120 °C
5  CCC1CC(=O)N(Cc2cccc(NS(C)(=O)=O)c2)N=C1c1ccc(OC)c(OC)c1 (stereo not given)         126 °C

----------
Catalogue of molecules with associated melting point
endpointName: melting point

> print(dat)
                                   molecule   endpointname  observedvalue
1  CCC1CC2C3CCC4=CC(=O)CCC4C3CCC2(C)C1OC(=O)CBr (stereo not given)  melting point  118 to 120 °C
2                O=c1cc(CO)oc(-c2ccccc2)c1O  melting point  151 to 154 °C
3  Nc1ncc2c(n1)N(c1ccccc1)C(=O)N(c1c(Cl)cccc1Cl)C2  melting point       > 300 °C
4  CC(C)(C)OC(=O)N1CCC(Oc2c(F)cc3c(=O)c(C(=O)O)cn(C4CC4)c3c2F)C1 (stereo not given)  melting point  158 to 160 °C
5             Nc1ccc(F)cc1-c1ccc(Cl)c(Cl)c1  melting point          58 °C

----------
Each record here notes measured melting point.
endpointName: melting point

> print(dat)
                                    compound   endpointname  observedvalue
 1  CNC(=O)c1ncc2[nH]c3cccc(Oc4ccc(Cl)cc4)c3c2c1COC  melting point         236 °C
 2  CC(=C1SCCCS1)c1ccc(Oc2ccc(S(C)=O)cc2)cc1 (stereo not given)  melting point         132 °C
 3  CN(C)C1(c2ccccc2)CCC(CNC(=O)NCCc2c[nH]c3ccccc23)CC1 (stereo not given)  melting point  159 to 163 °C
 4  CCCCNC(=O)C(O[Si](C)(C)C(C)(C)C)c1ccccc1O (stereo not given)  melting point    72 to 74 °C
 5             CCCc1nc2c(N)nc3cc(Cl)ccc3c2s1  melting point  159 to 160 °C
 6  CCCCn1cc(C(=O)C(=O)O)c2cc(-c3cccc(OC)c3)ccc21  melting point  108 to 109 °C
 7  COc1cc(C(=O)CC(c2ccncc2)C(C)(C)[N+](=O)[O-])cc(OC)c1OC (stereo not given)  melting point  214 to 216 °C
 8  O=C(O)COc1c(I)cc(C(=O)c2c(Cc3ccccc3)oc3ccccc23)cc1I  melting point  144 to 146 °C
 9  Cc1ccc(N2C(=O)C(O)=C(C(=O)c3ccc(C(C)C)cc3)C2c2ccc(OC(F)F)cc2)nn1 (stereo not given)  melting point  263 to 265 °C
10  Fc1ccc(Nc2ncnc3cnc(N4CCC(N5CCOCC5)CC4)nc23)cc1Cl  melting point  222 to 224 °C
11   CC(C)(C)C(=O)c1c[nH]c2ncc(-c3ccoc3)nc12  melting point  256 to 258 °C
12       CC(=O)Nc1c(C)c(C)c2c(c1C)CC(C)(C)O2  melting point         190 °C
13         COc1ccc(N2CCN(c3ccc(N)cc3)CC2)cc1  melting point         192 °C
14  CC(C)(C)CNc1nc(C#N)nc2ccc(OCc3ccncc3)cc12  melting point  203 to 205 °C
15                Oc1ccc(Oc2ncc(Cl)cc2Cl)cc1  melting point  122 to 124 °C
16  CSc1nccn1CC(=O)NC1C(=O)N2C(C(=O)O)=C(CSc3nnc(C)s3)CSC12 (stereo not given)  melting point         220 °C
17  O=S(=S)(OC1O[C@H](COCc2ccccc2)[C@@H](OCc2ccccc2)[C@H](OCc2ccccc2)[C@H]1OCc1ccccc1)c1ccccc1 (stereo not given in full)  melting point  106 to 108 °C
18         CC1(C)CCC(C)(C)c2cc(CC(=O)O)ccc21  melting point  149 to 150 °C
19  O=C(O)C1=Cc2cc(Cl)cc(F)c2OC1C(F)(F)F (stereo not given)  melting point  191 to 193 °C
20    COc1ccc2c(c1)c(CCO)c(C)n2Cc1ccc(Cl)cc1  melting point  113 to 115 °C
